# TARGET_SYSTEM: furin, P09958;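 note: purified furin at 1:10 enzyme:substrate in 50 mM HEPES pH 7.5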
# Sequence (P09958 whole entry): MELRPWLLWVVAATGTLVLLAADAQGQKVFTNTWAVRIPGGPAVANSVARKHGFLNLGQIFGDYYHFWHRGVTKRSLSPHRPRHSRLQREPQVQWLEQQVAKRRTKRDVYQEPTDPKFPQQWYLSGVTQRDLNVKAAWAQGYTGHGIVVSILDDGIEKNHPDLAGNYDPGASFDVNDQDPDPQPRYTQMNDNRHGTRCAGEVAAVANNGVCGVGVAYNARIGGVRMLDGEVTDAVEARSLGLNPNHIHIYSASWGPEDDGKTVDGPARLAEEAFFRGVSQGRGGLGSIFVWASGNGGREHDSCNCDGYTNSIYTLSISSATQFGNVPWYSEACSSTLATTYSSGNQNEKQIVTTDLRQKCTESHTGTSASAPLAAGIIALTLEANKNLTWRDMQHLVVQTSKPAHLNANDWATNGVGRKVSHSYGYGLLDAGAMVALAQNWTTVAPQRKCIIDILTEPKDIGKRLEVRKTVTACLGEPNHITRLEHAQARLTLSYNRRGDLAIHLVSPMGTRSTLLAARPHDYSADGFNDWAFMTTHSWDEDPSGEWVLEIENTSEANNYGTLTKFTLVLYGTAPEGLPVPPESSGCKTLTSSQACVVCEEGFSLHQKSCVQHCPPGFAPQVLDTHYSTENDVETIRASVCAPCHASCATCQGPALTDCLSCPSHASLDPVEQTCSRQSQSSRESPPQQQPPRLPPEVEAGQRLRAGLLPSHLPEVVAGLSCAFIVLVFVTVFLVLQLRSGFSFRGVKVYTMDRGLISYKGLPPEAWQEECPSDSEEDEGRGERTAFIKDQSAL
# METHOD: furin cleavage Z-score vs untreated control; higher = more cleavage, active = 3.5 or more, inactive = 1 or less, 8 variable residues between constant flanks
# EXPERIMENTAL_PARAMETERS: 30 min
The other results are listed elsewhere or left out. The hit rate among all sequences tested is not known here.
VALUE_TYPE: furin cleavage Z-score
// keep it numeric: no unit symbol after the value

Entry under review: CAPMSRGDRFAGNASASA [FS-701] . Reported furin cleavage Z-score?
0.556

Cool, now CAMGSSYGFQAGNASASA [HC1464]
-0.392

Cool, now CAQCTTPCSGAGNASASA [HC1962]
-0.234

Cool, now CAHGAGTRTIAGNASASA [HC702]
-2.29
